Target: Androgen Receptor (Homo sapiens)
Construct: endogenous in cells; host or cells: VCaP cells
Sequence (P10275 whole entry): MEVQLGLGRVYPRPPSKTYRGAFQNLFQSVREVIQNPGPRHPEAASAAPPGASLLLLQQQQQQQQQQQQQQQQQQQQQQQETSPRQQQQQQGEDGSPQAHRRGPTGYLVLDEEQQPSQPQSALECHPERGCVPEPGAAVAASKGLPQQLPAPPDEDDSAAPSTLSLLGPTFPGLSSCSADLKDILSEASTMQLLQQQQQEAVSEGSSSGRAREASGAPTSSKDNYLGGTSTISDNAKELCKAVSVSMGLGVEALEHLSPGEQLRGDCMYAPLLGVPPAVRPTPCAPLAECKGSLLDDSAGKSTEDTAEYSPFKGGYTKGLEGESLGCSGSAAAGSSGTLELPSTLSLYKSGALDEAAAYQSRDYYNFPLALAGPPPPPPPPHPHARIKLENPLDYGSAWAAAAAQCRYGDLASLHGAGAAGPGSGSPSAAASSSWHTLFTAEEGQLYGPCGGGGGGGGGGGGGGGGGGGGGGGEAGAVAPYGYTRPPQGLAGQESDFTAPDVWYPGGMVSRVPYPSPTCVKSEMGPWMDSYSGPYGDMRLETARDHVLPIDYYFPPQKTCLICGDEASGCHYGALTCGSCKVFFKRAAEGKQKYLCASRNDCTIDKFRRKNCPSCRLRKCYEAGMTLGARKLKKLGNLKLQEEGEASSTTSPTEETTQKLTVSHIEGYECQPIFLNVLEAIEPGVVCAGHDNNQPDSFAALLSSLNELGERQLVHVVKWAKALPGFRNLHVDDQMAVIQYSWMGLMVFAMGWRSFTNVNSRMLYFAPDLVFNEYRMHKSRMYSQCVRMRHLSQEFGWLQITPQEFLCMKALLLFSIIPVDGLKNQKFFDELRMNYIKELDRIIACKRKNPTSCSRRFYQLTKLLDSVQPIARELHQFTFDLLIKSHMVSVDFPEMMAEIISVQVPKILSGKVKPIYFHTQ
Assay: Androgen Receptor ELISA assay (PathScan AR ELISA) in VCaP cells: AR degradation, Dmax and DC50
Format: cell-based
Settings: read-out: VCaP DC50; VCaP cells; Table 35
observable: DC50

Example compounds with recorded DC50:
compound	DC50
Cc1ncsc1-c1ccc([C@H](C)NC(=O)[C@@H]2C[C@@H](O)CN2C(=O)[C@@H](NC(=O)COc2ccc(OC3CCN(c4ccc(N5C(=S)N(c6ccc(C#N)c(C(F)(F)F)c6)C(=O)C5(C)C)cc4)CC3)nc2)C(C)(C)C)cc1 [Example 430]	> 501 nM
Cc1ncsc1-c1ccc([C@H](C)NC(=O)[C@@H]2C[C@@H](O)CN2C(=O)[C@@H](NC(=O)COC[C@H](O)[C@@H](O)COc2ccc(-c3ccc(N4C(=S)N(c5ccc(C#N)c(C(F)(F)F)c5)C(=O)C4(C)C)cc3)cc2)C(C)(C)C)cc1 [Example 559]	< 50 nM
Cc1ncsc1-c1ccc(CNC(=O)[C@@H]2C[C@@H](O)CN2C(=O)[C@@H](NC(=O)COCCCOCCCCCOc2ccc(N3C(=S)N(c4ccc(C#N)c(C(F)(F)F)c4)C(=O)C3(C)C)cc2)C(C)(C)C)nc1 [Example 453]	> 501 nM
Cc1ncsc1-c1ccc([C@H](C)NC(=O)[C@@H]2C[C@@H](O)CN2C(=O)[C@@H](NC(=O)COc2ccc(O[C@H]3CC[C@H](Oc4ccc(N5C(=S)N(c6ccc(C#N)c(C(F)(F)F)c6)C(=O)C5(C)C)cc4)CC3)nc2)C(C)(C)C)cc1 (racemic) [Example 421]	51 to 500 nM
C[C@H](NC(=O)[C@@H]1C[C@@H](O)CN1C(=O)[C@@H](NC(=O)COCCCOCCCCCOc1ccc(N2C(=S)N(c3ccc(C#N)c(C(F)(F)F)c3)C(=O)C2(C)C)cc1)C(C)(C)C)c1ccc(-c2nccn2C)cc1 [Example 452]	> 501 nM

For each entry beneath this line, provide reported DC50.
1. Cc1ncsc1-c1ccc(CNC(=O)[C@@H]2C[C@@H](O)CN2C(=O)[C@@H](NC(=O)COC[C@H](O)[C@@H](O)COc2ccc(-c3ccc(N4C(=S)N(c5ccc(C#N)c(C(F)(F)F)c5)C(=O)C4(C)C)cc3)cc2)C(C)(C)C)cc1 [Example 567]
2. Cc1ncsc1-c1ccc([C@H](C)NC(=O)[C@@H]2C[C@@H](O)CN2C(=O)[C@H](C(C)C)n2cc(OCCCOCCC(O)CCOc3ccc(N4C(=S)N(c5ccc(C#N)c(C(F)(F)F)c5)C(=O)C4(C)C)cc3)cn2)cc1 (some centres unmarked) [Example 419]
3. Cc1ncsc1-c1ccc([C@H](C)NC(=O)[C@@H]2C[C@@H](O)CN2C(=O)[C@H](C(C)C)n2cc(OCCCOCCCCCOc3ccc(N4C(=S)N(c5ccc(C#N)c(C(F)(F)F)c5)C(=O)C4(C)C)cc3)cn2)nc1 [Example 428]

1. < 50 nM
2. < 50 nM
3. > 501 nM
